# Target entity: recombinant human HGF (R&D Systems, Catalog No. 294-HGN-025) (human, UniProt P14210 32-728)
# Sequence (P14210 32-728 limits assumed): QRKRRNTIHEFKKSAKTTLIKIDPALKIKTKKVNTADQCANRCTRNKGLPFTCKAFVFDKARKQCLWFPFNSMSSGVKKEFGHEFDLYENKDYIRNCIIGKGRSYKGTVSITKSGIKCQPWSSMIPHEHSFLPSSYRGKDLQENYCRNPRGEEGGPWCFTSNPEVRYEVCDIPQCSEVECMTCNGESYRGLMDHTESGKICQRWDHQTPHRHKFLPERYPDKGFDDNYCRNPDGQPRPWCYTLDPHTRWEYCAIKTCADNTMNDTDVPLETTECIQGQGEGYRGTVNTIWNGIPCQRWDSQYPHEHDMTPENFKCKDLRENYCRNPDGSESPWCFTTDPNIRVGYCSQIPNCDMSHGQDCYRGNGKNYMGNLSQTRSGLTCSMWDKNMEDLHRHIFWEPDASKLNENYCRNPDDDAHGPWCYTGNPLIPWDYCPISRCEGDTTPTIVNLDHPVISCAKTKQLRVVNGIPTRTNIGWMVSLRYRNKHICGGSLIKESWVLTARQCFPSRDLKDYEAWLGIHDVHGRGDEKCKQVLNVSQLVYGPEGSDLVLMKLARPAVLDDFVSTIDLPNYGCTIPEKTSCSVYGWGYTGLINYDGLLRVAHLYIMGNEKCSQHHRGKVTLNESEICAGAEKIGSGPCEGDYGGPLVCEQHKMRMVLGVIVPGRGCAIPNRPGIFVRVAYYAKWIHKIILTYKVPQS
# Protocol notes: cell-based or functional assay
Measurement kind: IC50 (nM), HGF stimulated BrdU incorporation in 4MBr-5 cells
Could you give me the number in nM? Just the number is fine.

Request: Output measured IC50 (nM), HGF stimulated BrdU incorporation in 4MBr-5 cells for this item: anti-hHGF monoclonal antibody 1F3 (antibody, mouse IgG1, kappa, V domains shown) VH: EVQLVESGGGLVQSGGSLKLSCAASGFTFSNYFMSWVRQTPEKRLEWVAYISSGGGSTYYPDSVKGRFTISRDNAKNTLYLQMSSLKSEDTAMYYCVRQGDGYYGDYAMDYWGQGTSVTVSS VL: DIQMTQSPASLSVSVGETVTITCRASENIYSNLAWYQQKQGKSPQLLVYDATHLPDGVPSRFSGSGSGTQFSLKINSLQSEDFGSYYCQHFWGTPYTFGGGTRLEIKR
Result: 1.94
